half-life at 1 µM values, listed per item
# Experimental protocol: Liver microsomal stability test, mouse
# Type: in vitro ADME
# Assay context: mouse, liver microsomes, mouse liver microsomes, NADPH, 37° C.; read-out: T1/2 (min) Mouse

As a guide, the following entries are already answered.
                                   compound  observed
0  CCn1nc(C(=O)NCc2ccc(-n3cnc4c(N)ncnc43)cc2)cc1Cc1ccccc1 [QY-9-34]  13.9 min
1  Nc1ncnc2c1ncn2-c1ccc(CNC(=O)c2cn(Cc3ccccc3)cn2)cc1 [ZSQ-21-13]    99 min
2  CNC(=O)c1ccc2c(c1)ncn2-c1ccc(CNC(=O)c2cc(Cc3ccccc3)on2)cc1 [QY-6-16]  24.8 min

Inquiry: Supply recorded half-life at 1 µM for Cn1nc(C(=O)NCc2ccc(-n3cnc4c(N)ncnc43)cc2)cc1Cc1ccccc1 [QY-8-43] here.
Reply text: 23.9 min

Inquiry: Supply recorded half-life at 1 µM for Cn1ncc(C(=O)NCc2ccc(-n3ccc4c(N)ncnc43)cc2)c1Cc1ccccc1 [QY-10-39] here.
Reply text: 25.7 min

Inquiry: Supply recorded half-life at 1 µM for CNC(=O)c1ccc2c(c1)ncn2-c1ccc(CN2CCc3cn(Cc4ccccc4)nc3C2=O)cc1 [QY-8-7] here.
Reply text: 12.2 min

Inquiry: Supply recorded half-life at 1 µM for Cn1ncc(C(=O)NCc2ccc(-n3cnc4cc(C(=O)NCCN5CCOCC5)ccc43)cc2)c1Cc1ccccc1 [QY-11-68B] here.
Reply text: 34.7 min

Inquiry: Supply recorded half-life at 1 µM for CCn1nc(C(=O)NCc2ccc(-n3ccc4c(N)ncnc43)cc2)cc1Cc1ccccc1 [QY-9-33] here.
Reply text: 11.2 min
